- measured-target: UniProtKB P42574
- Sequence (P42574 29-175 limits assumed, species assumed): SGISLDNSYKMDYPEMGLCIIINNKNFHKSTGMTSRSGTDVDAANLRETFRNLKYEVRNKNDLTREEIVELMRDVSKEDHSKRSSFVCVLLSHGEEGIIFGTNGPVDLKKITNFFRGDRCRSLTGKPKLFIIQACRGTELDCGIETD
- Sequence (P42574 176-277 limits assumed, species assumed): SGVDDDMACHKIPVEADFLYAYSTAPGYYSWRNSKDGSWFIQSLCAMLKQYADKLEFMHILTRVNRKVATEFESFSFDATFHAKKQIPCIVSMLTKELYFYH
- protocol-notes: Continuous assay for Ki and k3 of irreversible inhibitors, CPP32
- condition-summary: continuous assay 60 min, reaction initiated by adding enzyme
assay-readout: Ki (nM)

molecule: O=C(O)CC(NC(=O)[C@@H]1Cc2cccc3c2N1C(=O)[C@@H](NC(=O)OCc1ccccc1)CC3)C(=O)CF (stereo partly shown)
output-unit: nM
numeric-result: 12

###

pIC50: −log10 of the molar value.
# pIC50 measurements, system: MCH-5 (Homo sapiens, UniProt Q14790)
# Sequence (Q14790 217-374 limits assumed, species assumed): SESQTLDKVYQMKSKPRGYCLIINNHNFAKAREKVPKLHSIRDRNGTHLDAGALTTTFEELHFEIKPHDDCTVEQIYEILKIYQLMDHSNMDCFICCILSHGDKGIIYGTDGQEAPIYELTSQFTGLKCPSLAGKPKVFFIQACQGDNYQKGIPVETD
# Sequence (Q14790 385-479 limits assumed, species assumed): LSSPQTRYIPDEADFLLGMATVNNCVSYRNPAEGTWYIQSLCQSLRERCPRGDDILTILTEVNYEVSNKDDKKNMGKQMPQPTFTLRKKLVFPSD

compound: O=C(CCc1ccccc1)N[C@H]1CCc2cccc3c2N(C1=O)[C@H](C(=O)N[C@H]1CC(=O)OC1O)C3 (some centres unmarked)
comparative-sign: =
pIC50: 4.73
--
compound: O=C(O)CCC(=O)N[C@H]1CCc2cccc3c2N(C1=O)[C@H](C(=O)N[C@H]1CC(=O)OC1O)C3 (some centres unmarked)
comparative-sign: =
pIC50: 5.10
--
compound: O=C(O)C[C@H](NC(=O)OCc1ccccc1)C(=O)N[C@H]1CCc2cccc3c2N(C1=O)[C@H](C(=O)N[C@H]1CC(=O)OC1O)C3 (some centres unmarked)
comparative-sign: =
pIC50: 5.92
--
compound: O=C1C[C@H](NC(=O)[C@@H]2Cc3cccc4c3N2C(=O)[C@@H](NC(=O)OCc2ccccc2)CC4)C(O)O1 (some centres unmarked)
comparative-sign: <
pIC50: 5.00
--
compound: O=C1CC(NC(=O)C2CCc3cccc4c3N2C(=O)C(NC(=O)OCc2ccccc2)CC4)C(O)O1 (mixture of isomers)
comparative-sign: =
pIC50: 5.69

###

- measured-target: MCH-5 (Homo sapiens, UniProt Q14790)
- protocol-notes: Continuous assay for Ki and k3 of irreversible inhibitors, Mch5
- condition-summary: continuous assay 60 min, reaction initiated by adding enzyme
pKi: −log10 of the molar value.
assay-readout: pKi

compound: O=C(O)CC(NC(=O)[C@@H]1Cc2cccc3c2N1C(=O)[C@@H](NC(=O)OCc1ccccc1)CC3)C(=O)CF (stereo partly shown) [Example 31]
measured-target: MCH-5 (Homo sapiens, UniProt Q14790)
assay-readout: pKi
numeric-result: 7.66

###

Recorded pIC50 values for a group of molecules are listed next.
- measured-target: MCH-3 (Homo sapiens)
- Sequence (P55210 24-198 limits assumed): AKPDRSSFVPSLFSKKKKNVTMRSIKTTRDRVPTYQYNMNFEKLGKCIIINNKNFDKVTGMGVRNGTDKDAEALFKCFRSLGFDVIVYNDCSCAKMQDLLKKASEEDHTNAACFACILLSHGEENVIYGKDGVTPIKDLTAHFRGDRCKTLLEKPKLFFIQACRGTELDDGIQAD
- Sequence (P55210 207-303 limits assumed): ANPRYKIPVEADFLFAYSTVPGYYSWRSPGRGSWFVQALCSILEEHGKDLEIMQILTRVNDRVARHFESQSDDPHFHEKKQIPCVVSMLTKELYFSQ
pIC50: −log10 of the molar value.
assay-readout: pIC50

molecule: O=C1CC(NC(=O)C2CCc3cccc4c3N2C(=O)C(NC(=O)OCc2ccccc2)CC4)C(O)O1 (mixture of isomers)
numeric-result: 5.95

molecule: O=C(O)C[C@H](NC(=O)OCc1ccccc1)C(=O)N[C@H]1CCc2cccc3c2N(C1=O)[C@H](C(=O)N[C@H]1CC(=O)OC1O)C3 (stereo partly drawn)
numeric-result: 7.08

molecule: O=C(O)CCC(=O)N[C@H]1CCc2cccc3c2N(C1=O)[C@H](C(=O)N[C@H]1CC(=O)OC1O)C3 (stereo partly drawn)
numeric-result: 5.55

###

- measured-target: mICE (Mus musculus, UniProt P29452)
- Sequence (P29452 123-296 limits assumed): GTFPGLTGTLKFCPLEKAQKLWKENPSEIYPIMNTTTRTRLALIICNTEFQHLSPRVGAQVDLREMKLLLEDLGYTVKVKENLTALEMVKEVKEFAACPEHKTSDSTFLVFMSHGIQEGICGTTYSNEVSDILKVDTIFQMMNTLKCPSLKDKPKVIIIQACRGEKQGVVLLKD
- Sequence (P29452 315-402 limits assumed): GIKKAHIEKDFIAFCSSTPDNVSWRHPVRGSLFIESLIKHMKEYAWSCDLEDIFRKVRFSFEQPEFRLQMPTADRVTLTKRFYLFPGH
- protocol-notes: Fluorescence enzyme assay, IC50 determination, ICE
- condition-summary: recombinant enzyme, substrate Acetyl-Tyr-Val-Ala-Asp-AMC, 30 min preincubation, room temperature
- Method: Fluorescence enzyme assays detecting the activity of the compounds of Formula 1 utilizing the recombinant ICE and CPP32 enzymes were performed essentially according to Thornberry et al. (Nature, 356:768:774 (1992)) and Nicholson et al. (Nature, 376:37-43 (1995)) respectively, (herein incorporated by reference) in 96 well microtiter plates. […]
pIC50: −log10 of the molar value.

compound: O=C(O)CCC(=O)N[C@H]1CCc2cccc3c2N(C1=O)[C@H](C(=O)N[C@H]1CC(=O)OC1O)C3 (stereo partly drawn) [Example 10]
pIC50: 6.24

compound: CC(=O)N[C@H]1CCc2cccc3c2N(C1=O)[C@H](C(=O)N[C@H]1CC(=O)OC1O)C3 (stereo partly drawn) [Example 19]
pIC50: 5.51

compound: CC(=O)N[C@@H](CC(=O)O)C(=O)N[C@H]1CCc2cccc3c2N(C1=O)[C@H](C(=O)N[C@H]1CC(=O)OC1O)C3 (stereo partly drawn) [Example 7]
pIC50: 6.16

compound: O=C1CC(NC(=O)C2CCc3cccc4c3N2C(=O)C(NC(=O)OCc2ccccc2)CC4)C(O)O1 (mixture of isomers) [Example 28]
pIC50: 7.59

compound: O=C1C[C@H](NC(=O)[C@@H]2Cc3cccc4c3N2C(=O)[C@@H](NC(=O)c2ccccc2)CC4)C(O)O1 (stereo partly drawn) [Example 25]
pIC50: 6.80

compound: O=C(CCc1ccccc1)N[C@H]1CCc2cccc3c2N(C1=O)[C@H](C(=O)N[C@H]1CC(=O)OC1O)C3 (stereo partly drawn) [Example 16]
pIC50: 7.35

compound: O=C1C[C@H](NC(=O)[C@@H]2Cc3cccc4c3N2C(=O)[C@@H](NC(=O)c2cccc3ccccc23)CC4)C(O)O1 (stereo partly drawn) [Example 22]
pIC50: 8.00

compound: O=C1C[C@H](NC(=O)[C@@H]2Cc3cccc4c3N2C(=O)[C@@H](NC(=O)OCc2ccccc2)CC4)C(O)O1 (stereo partly drawn) [Example 3]
pIC50: 7.72

compound: O=C(O)C[C@H](NC(=O)OCc1ccccc1)C(=O)N[C@H]1CCc2cccc3c2N(C1=O)[C@H](C(=O)N[C@H]1CC(=O)OC1O)C3 (stereo partly drawn) [Example 13]
pIC50: 7.02

###

- measured-target: UniProt P42574
- protocol-notes: Fluorescence enzyme assay, IC50 determination, CPP32
- condition-summary: recombinant enzyme, substrate Acetyl-Asp-Glu-Val-Asp-AMC, 30 min preincubation, room temperature
Binned IC50; ranges: range A = under 200 nM, range B = from 200 nM up to 3000 nM, range C = 3000 nM and over

compound: O=C1CC(NC(=O)C2CCc3cccc4c3N2C(=O)C(NC(=O)OCc2ccccc2)CC4)C(O)O1 (mixture of isomers)
class-assignment: range B

compound: O=C(O)CCC(=O)N[C@H]1CCc2cccc3c2N(C1=O)[C@H](C(=O)N[C@H]1CC(=O)OC1O)C3 (stereo partly drawn)
class-assignment: range B

compound: O=C1C[C@H](NC(=O)[C@@H]2Cc3cccc4c3N2C(=O)[C@@H](NC(=O)c2ccccc2)CC4)C(O)O1 (stereo partly drawn)
class-assignment: range C

compound: CC(=O)N[C@@H](CC(=O)O)C(=O)N[C@H]1CCc2cccc3c2N(C1=O)[C@H](C(=O)N[C@H]1CC(=O)OC1O)C3 (stereo partly drawn)
class-assignment: range A

compound: CC(=O)N[C@H]1CCc2cccc3c2N(C1=O)[C@H](C(=O)N[C@H]1CC(=O)OC1O)C3 (stereo partly drawn)
class-assignment: range C

compound: O=C(CCc1ccccc1)N[C@H]1CCc2cccc3c2N(C1=O)[C@H](C(=O)N[C@H]1CC(=O)OC1O)C3 (stereo partly drawn)
class-assignment: range B

compound: O=C1C[C@H](NC(=O)[C@@H]2Cc3cccc4c3N2C(=O)[C@@H](NC(=O)OCc2ccccc2)CC4)C(O)O1 (stereo partly drawn)
class-assignment: range B

compound: O=C(O)C[C@H](NC(=O)OCc1ccccc1)C(=O)N[C@H]1CCc2cccc3c2N(C1=O)[C@H](C(=O)N[C@H]1CC(=O)OC1O)C3 (stereo partly drawn)
class-assignment: range A

###

Consider the following molecules and their measured IC50 readings.
- measured-target: UniProt:P55210
- Sequence (P55210 24-198 limits assumed): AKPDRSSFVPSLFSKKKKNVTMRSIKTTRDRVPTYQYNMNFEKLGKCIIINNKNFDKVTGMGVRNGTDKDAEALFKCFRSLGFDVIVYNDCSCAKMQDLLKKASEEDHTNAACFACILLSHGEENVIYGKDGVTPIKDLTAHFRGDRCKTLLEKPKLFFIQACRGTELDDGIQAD
- Sequence (P55210 207-303 limits assumed): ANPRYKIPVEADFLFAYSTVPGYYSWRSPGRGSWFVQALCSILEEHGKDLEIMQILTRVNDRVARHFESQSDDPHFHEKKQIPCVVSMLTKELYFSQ

molecule: O=C1C[C@H](NC(=O)[C@@H]2Cc3cccc4c3N2C(=O)[C@@H](NC(=O)c2ccccc2)CC4)C(O)O1 (stereo partly drawn) [Example 25]
comparative-sign: >
IC50 (µM): 50
//
molecule: O=C1C[C@H](NC(=O)[C@@H]2Cc3cccc4c3N2C(=O)[C@@H](NC(=O)c2cccc3ccccc23)CC4)C(O)O1 (stereo partly drawn) [Example 22]
comparative-sign: =
IC50 (µM): 12.3
//
molecule: O=C(CCc1ccccc1)N[C@H]1CCc2cccc3c2N(C1=O)[C@H](C(=O)N[C@H]1CC(=O)OC1O)C3 (stereo partly drawn) [Example 16]
comparative-sign: =
IC50 (µM): 32.6
